No end group written: not given here.
property: IC50

## Input System human fibroblastoid line M1 cells. Read-out IC50. Item KDLLEQKRAAVDTY-NH2 [65–78*0401] . Report value.
## Output ~0.25 µM

---

- Tested on: human fibroblastoid line M1 cells
- conditionSummary: 10 μM 2CA, co-incubation with various concentrations
property: Block of 2CA-triggered DNA repair activity

compound	result
CC(=O)N[C@H](C(=O)O)C(C)(C)SN=O (racemic) [SNAP, S-Nitroso-N-Acetylpenicillamine, reference compound]	completely blocked
Nc1nc2c(nc(Br)n2[C@@H]2O[C@@H]3COP(=O)(O)O[C@H]3[C@H]2O)c(=O)[nH]1 [8-Br-cGMP, 8-bromo-cyclic GMP, reference compound]	completely blocked
CCCn1c(=O)c2[nH]c(-c3ccc(OCC(=O)NCCN)cc3)nc2n(CCC)c1=O [XAC, reference compound]	could be blocked
CCCn1c(=O)[nH]c(=O)c2[nH]cnc21 [enprofylline, reference compound]	could be blocked

Data credit: patent US7208154B2
